# reported Effect of test compounds on capsaicin (1 μM)-induced CGRP release (%); entries follow
biological target: TRPV1 receptor (Rattus norvegicus, UniProt O35433); assay: TRPV1 modulation in DRG neurones: CGRP release in absence and presence of capsaicin (Assay 2); format: cell-based; design: The culture used for this experiment contained sensory neurones, Schwann cells and fibroblasts; endogenous in cells; host or cells: primary rat DRG sensory neurone culture (with Schwann cells and fibroblasts); settings: 30 μM with capsaicin 1 μM; −ve: inhibition, +ve: potentiation of capsaicin response
Sequence (O35433 whole entry): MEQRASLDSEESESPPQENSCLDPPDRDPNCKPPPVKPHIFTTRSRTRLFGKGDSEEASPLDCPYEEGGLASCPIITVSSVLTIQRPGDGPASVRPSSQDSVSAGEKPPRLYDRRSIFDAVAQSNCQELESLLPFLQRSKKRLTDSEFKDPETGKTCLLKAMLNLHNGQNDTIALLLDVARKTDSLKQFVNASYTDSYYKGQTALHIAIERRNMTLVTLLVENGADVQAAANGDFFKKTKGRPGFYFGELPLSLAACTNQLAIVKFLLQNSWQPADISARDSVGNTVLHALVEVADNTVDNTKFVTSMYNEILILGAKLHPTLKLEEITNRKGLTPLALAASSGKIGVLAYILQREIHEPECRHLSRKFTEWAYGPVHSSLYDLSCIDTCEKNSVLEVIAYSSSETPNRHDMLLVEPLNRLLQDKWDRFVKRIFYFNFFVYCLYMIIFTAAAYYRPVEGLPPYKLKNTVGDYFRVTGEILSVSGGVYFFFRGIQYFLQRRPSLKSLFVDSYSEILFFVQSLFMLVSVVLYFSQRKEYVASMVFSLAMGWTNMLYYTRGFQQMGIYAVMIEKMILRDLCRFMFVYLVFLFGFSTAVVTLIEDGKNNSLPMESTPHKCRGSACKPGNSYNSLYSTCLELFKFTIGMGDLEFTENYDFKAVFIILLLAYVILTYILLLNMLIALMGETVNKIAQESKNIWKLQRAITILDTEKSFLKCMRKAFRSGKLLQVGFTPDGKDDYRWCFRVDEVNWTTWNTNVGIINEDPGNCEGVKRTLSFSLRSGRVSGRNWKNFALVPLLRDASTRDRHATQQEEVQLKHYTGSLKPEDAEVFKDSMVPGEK
Numeric only. Scale: %

Completed entries (count: 3):
>  <molecule>
COc1cc(CCC(=O)CC(=O)c2ccc(Cl)cc2Cl)ccc1O [Compound 24]

>  <tested on>
TRPV1 receptor (Rattus norvegicus, UniProt O35433)

>  <result number>
2

$$$$
>  <molecule>
CCC(=O)CC(=O)CCc1ccc(O)c(OC)c1 [3-gingerdione, reference compound]

>  <tested on>
TRPV1 receptor (Rattus norvegicus, UniProt O35433)

>  <result number>
−43

$$$$
>  <molecule>
COc1cc(CCC(=O)CC(=O)C(C)C)ccc1O [Compound 1]

>  <tested on>
TRPV1 receptor (Rattus norvegicus, UniProt O35433)

>  <result number>
−24

$$$$

// below: Effect of test compounds on capsaicin (1 μM)-induced CGRP release (%) requested for another molecule
[Q] Specify measured Effect of test compounds on capsaicin (1 μM)-induced CGRP release (%) for COc1cc(CCC(=O)CC(=O)c2ccc(Cl)c(Cl)c2)ccc1O [Compound 23] .
[A] 47

---

tested on: histamine-induced contractions in guinea pig ileum; test: Inhibition of histamine-induced contractions in guinea pig ileum (Assay 3); details: 3 μM; histamine 1.7 μM
# reported Inhibition of histamine-induced contraction (%); entries follow
Numeric only. Scale: %

>  <compound>
COc1cc(CCC(=O)CC(=O)c2ccc(Cl)c(Cl)c2)ccc1O

>  <result number>
8

$$$$
>  <compound>
COc1cc(CCC(=O)CC(=O)c2ccc(Cl)cc2Cl)ccc1O

>  <result number>
12

$$$$

[Q] Specify measured Inhibition of histamine-induced contraction (%) for COc1cc(CCC(=O)CC(=O)C(C)C)ccc1O .
[A] 0

[Q] Specify measured Inhibition of histamine-induced contraction (%) for CCC(=O)CC(=O)CCc1ccc(O)c(OC)c1 [3-gingerdione, reference compound] .
[A] 5

---

test system: IL-1α-induced PGE2 release; experiment: IL-1α-induced PGE2 release in human diploid lung fibroblasts (WI-38) (Assay 5); type: cell-based; conditions: Homo sapiens; 3 μM; WI-38 cells, IL-1α 1 nM, overnight
# reported inhibition at 3 µM; entries follow
Numeric only. Scale: %

>  <compound>
COc1cc(CCC(=O)C(C)C(=O)c2ccccc2)ccc1O (stereo not drawn)

>  <inhibition at 3 µM [%]>
79

$$$$
>  <compound>
COc1cc(CCC(=O)CC(=O)c2ccccc2)ccc1O

>  <inhibition at 3 µM [%]>
89

$$$$
>  <compound>
COc1cc(CCC(=O)CC(=O)c2ccc(C)cc2)ccc1O

>  <inhibition at 3 µM [%]>
72

$$$$
>  <compound>
COc1cc(CCC(=O)C(C)(C)C(=O)c2ccccc2)ccc1O

>  <inhibition at 3 µM [%]>
67

$$$$
>  <compound>
COc1cc(/C=C/C(=O)CC(=O)C(C)(C)C)ccc1O

>  <inhibition at 3 µM [%]>
72

$$$$

[Q] Specify measured inhibition at 3 µM for COc1cc(CCC(=O)C(C)(C)C(=O)C(C)(C)C)ccc1O .
[A] 41
